Value source: patent US20240058339A1

GI % reference
# Test system: SW480 cell line (KRAS^G12V-CRC)
# assay-protocol: EdU proliferation assay (MI, GI %) in CRC cell line
# Type: cell-based
# settings: 4 days, uM: osimertinib 0.5, afatinib 0.2, cobimetinib 0.4, trametinib 0.02, TAK-733 0.18, palbociclib 0.15, ribociclib 5
# Description: The experimental procedures are briefly outlined as follows. For in vitro drug testing, ˜3000 cells were exposed to a combination of drugs or single drugs for 4 days or 7 days. […] The incorporated Edu was detected by Click-iT reaction where fixed cells were incubated with a reaction mixture containing 1× Click-iT Edu reaction buffer, CuSO4, and azide-conjugated Alexa Fluor dye in the dark. […] The MI (Maximum Inhibition Index) was calculated using the EpCAM and Edu positive readout (Tables 1-2). […]
readout-kind: GI % (%)

1. C=CC(=O)Nc1cc(Nc2nccc(-c3cn(C)c4ccccc34)n2)c(OC)cc1N(C)CCN(C)C    27.83
2. CC(=O)Nc1cccc(-n2c(=O)n(C3CC3)c(=O)c3c(Nc4ccc(I)cc4F)n(C)c(=O)c(C)c32)c1    62.07
3. Cn1c(=O)c(F)c(Nc2ccc(I)cc2F)c2c(=O)n(C[C@@H](O)CO)cnc21    67.79
4. CN(C)C(=O)c1cc2cnc(Nc3ccc(N4CCNCC4)cn3)nc2n1C1CCCC1    78.59
5. CN(C)C/C=C/C(=O)Nc1cc2c(Nc3ccc(F)c(Cl)c3)ncnc2cc1O[C@H]1CCOC1    21.08
6. O=C(c1ccc(F)c(F)c1Nc1ccc(I)cc1F)N1CC(O)([C@@H]2CCCCN2)C1    79.85
7. CC(=O)c1c(C)c2cnc(Nc3ccc(N4CCNCC4)cn3)nc2n(C2CCCC2)c1=O    40.51
